Data provenance: the Human Domainome abundance scans (Beltran et al. 2025)

B1: Gamma-crystallin C, residues 4 to 79; numbered along this chain, P07315 (parent)
chain: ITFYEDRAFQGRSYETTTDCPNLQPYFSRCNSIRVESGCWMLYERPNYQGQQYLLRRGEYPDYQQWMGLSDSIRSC

# Variants of: B1
# assay overview: abundance fitness (aPCA) (normalised: wild type 0, dead -1); higher = more abundant; growth selection in yeast, the domain comes from the species named
# stated conditions: Homo sapiens
quantity: abundance fitness
# answer = number (no unit)

V35Y :: -0.827
I73K :: -0.801
F9W :: -0.028
L69E :: 0.017
D19R :: -0.027

Report abundance fitness for D62N please.
-0.043

Entry to check: L69T
0.047

Try T16M next.
0.074

Try this variant too: G58V
-1

And S32A ?
-0.101

And then Y4Q , what is it?
-1.01

Next variant up: R74V
0.108
